# isoTOP-ABPP reactivity ratio at lysine P19367_K510 values compiled below
# Test Target: HK1 Hexokinase-1 (Homo sapiens, UniProt P19367)
# Construct: isoTOP-ABPP experiments performed in cell lysates (in vitro); endogenous in cells; host or cells: soluble proteome of human cancer cell lines (MDA-MB-231; Ramos and Jurkat also prepared)
# Sequence (P19367 whole entry): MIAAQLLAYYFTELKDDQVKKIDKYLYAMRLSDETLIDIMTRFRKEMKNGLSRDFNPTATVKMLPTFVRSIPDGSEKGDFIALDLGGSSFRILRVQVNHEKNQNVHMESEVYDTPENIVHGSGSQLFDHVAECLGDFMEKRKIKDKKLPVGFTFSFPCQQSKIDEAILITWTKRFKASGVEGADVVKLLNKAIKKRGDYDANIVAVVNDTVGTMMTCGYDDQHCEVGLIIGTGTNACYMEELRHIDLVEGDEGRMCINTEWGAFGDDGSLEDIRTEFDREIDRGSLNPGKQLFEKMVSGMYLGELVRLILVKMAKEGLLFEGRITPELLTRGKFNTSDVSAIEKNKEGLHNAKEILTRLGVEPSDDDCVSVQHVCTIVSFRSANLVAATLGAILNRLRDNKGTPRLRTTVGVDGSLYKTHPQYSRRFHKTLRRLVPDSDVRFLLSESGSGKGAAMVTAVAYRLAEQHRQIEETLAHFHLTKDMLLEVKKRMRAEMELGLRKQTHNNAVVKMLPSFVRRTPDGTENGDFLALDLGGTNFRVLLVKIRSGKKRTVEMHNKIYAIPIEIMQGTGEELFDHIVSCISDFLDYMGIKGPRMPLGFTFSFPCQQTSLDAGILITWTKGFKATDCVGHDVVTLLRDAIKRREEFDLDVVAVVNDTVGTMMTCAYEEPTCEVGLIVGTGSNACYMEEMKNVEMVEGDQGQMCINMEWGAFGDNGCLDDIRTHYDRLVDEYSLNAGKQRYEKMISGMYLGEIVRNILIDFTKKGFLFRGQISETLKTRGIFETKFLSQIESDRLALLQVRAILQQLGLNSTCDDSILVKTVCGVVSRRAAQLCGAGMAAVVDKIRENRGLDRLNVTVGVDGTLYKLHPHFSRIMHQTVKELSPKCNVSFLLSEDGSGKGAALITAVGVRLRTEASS
# Method: competitive isoTOP-ABPP
# Type: binding
# Parameters: key: R = MS1 peak area ratio, DMSO (heavy) / compound-treated (light)
# Run Conditions: 50 uM, 231 sol, in vitro
# Procedure: In vitro covalent fragment treatment for isoTOP-ABPP. All compounds were made up as solutions in DMSO (100×) and were used at a final concentration of 50 μM for activated esters and 100 μM for guanidinylating agents. […] R value calculation and processing. The ratios of light and heavy MS1 peaks for each unique peptide were quantified with a CIMAGE software using default parameters (3 MS1 acquisitions per peak and signal to noise threshold set to 2.5). […]
The reply should be a number, written without any unit.

INSERT INTO measurements (molecule, test_target, numeric_result) VALUES
  ('Cn1cc(CC(=O)Oc2ccc([N+](=O)[O-])cc2[N+](=O)[O-])c2ccccc21', 'HK1 Hexokinase-1 (Homo sapiens, UniProt P19367)', 8.6),
  ('COc1cc(CCC(=O)Oc2ccc([N+](=O)[O-])cc2[N+](=O)[O-])cc(OC)c1OC', 'HK1 Hexokinase-1 (Homo sapiens, UniProt P19367)', 20.0);

I looked up O=C(CCc1coc2cc(F)ccc2c1=O)Oc1c(F)c(F)c(F)c(F)c1F and its isoTOP-ABPP reactivity ratio at lysine P19367_K510 for HK1 Hexokinase-1 (Homo sapiens, UniProt P19367) was 3.4

Entry O=C(CN1C(=O)c2ccccc2C1=O)Oc1c(F)c(F)c(F)c(F)c1F , tested on HK1 Hexokinase-1 (Homo sapiens, UniProt P19367), has a reported isoTOP-ABPP reactivity ratio at lysine P19367_K510 of 1.3

So the reported isoTOP-ABPP reactivity ratio at lysine P19367_K510 for O=C(Oc1ccc([N+](=O)[O-])cc1[N+](=O)[O-])c1cc(C(F)(F)F)cc(C(F)(F)F)c1 , on HK1 Hexokinase-1 (Homo sapiens, UniProt P19367), turned out to be 1.1
